biological target: Serine/threonine-protein kinase B-raf (Homo sapiens, UniProt P15056, V600E); test: Inhibition of B-RAF V600E (unknown origin)
Sequence (P15056 2-766 V600E limits assumed): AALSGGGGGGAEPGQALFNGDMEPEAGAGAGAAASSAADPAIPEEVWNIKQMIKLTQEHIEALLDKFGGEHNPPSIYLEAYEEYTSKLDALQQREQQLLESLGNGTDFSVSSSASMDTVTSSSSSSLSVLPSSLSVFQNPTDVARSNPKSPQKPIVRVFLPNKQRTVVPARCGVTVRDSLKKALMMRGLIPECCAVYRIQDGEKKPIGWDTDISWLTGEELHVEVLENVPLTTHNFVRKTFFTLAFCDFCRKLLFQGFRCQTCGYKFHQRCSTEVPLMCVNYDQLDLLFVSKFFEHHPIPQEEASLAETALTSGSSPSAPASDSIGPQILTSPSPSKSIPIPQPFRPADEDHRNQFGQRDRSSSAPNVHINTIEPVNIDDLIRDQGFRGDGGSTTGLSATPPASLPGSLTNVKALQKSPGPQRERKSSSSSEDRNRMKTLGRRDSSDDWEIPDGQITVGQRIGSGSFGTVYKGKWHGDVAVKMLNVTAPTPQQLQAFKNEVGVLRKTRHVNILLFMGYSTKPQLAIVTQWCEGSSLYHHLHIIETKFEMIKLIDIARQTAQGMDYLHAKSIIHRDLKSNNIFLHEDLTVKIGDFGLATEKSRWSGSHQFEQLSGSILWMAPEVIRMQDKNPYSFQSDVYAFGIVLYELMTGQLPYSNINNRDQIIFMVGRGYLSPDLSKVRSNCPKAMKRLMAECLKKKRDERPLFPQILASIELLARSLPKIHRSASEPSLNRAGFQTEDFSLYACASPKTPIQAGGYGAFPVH
READOUT_KIND: IC50
Please append the unit to your numeric answer.

The measured IC50 associated with CCCS(=O)(=O)Nc1cc(F)c(F)c(Nc2ccc3ncn(C)c(=O)c3c2C)c1Cl reads 0.34 nM

* * *

target: Serine/threonine-protein kinase B-raf (Homo sapiens, UniProt P15056); assay: Inhibition of wild-type B-RAF (unknown origin)
Sequence (P15056 whole entry): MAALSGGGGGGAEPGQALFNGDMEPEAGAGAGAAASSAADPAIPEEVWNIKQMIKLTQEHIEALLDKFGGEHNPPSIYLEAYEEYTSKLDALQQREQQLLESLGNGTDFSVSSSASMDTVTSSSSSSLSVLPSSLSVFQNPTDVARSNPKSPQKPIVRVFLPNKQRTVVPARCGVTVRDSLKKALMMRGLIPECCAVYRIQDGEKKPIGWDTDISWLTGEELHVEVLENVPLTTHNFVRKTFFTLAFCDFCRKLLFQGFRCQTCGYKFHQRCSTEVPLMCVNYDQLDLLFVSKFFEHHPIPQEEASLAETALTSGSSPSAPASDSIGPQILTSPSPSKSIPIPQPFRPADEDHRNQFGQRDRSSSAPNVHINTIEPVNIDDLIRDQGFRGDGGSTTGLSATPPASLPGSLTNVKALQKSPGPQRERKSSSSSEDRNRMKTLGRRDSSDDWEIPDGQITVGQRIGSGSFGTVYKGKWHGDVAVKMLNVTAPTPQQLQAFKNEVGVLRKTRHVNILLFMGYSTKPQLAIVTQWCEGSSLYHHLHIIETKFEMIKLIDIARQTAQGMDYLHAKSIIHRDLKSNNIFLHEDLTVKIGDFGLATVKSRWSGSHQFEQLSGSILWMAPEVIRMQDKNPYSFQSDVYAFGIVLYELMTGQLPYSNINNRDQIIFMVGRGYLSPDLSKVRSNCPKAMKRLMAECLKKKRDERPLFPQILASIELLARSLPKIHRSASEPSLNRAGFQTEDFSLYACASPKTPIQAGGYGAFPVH
Consider the following compounds; for each one, report its IC50.
Answers are plain numbers, in nM.

# CPD_SMILES, READOUT_KIND, RECORDED_RESULT
measured = [
    ("Cc1ccc(NC(=O)c2ccnc(C(F)(F)F)c2)cc1-c1cc(OCCO)nc(N2CCOCC2)c1", "IC50", 3.7),
]

The measured IC50 associated with O=C1CCc2c(Oc3ccc4c(c3)[C@H]3[C@H](NC(=O)Nc5ccccc5F)[C@H]3O4)ccnc2N1 reads 1.1

* * *

molecular target: Serine/threonine-protein kinase B-raf (Homo sapiens); test: Inhibition of B-RAF (unknown origin)
READOUT_KIND: pIC50
One number for each entry, as −log10 of the molar value.

Bench note, Serine/threonine-protein kinase B-raf (Homo sapiens): Cc1ccc2c(Nc3cccc(Cl)c3F)nccc2c1NC(=O)c1csc2c(N)ncnc12 , pIC50 reads 6.94

* * *

molecular target: Serine/threonine-protein kinase B-raf (Homo sapiens, UniProt P15056, V600E); test: Inhibition of B-RAF V600E mutant (unknown origin)
Consider the following compounds; for each one, report its IC50.
One number for each entry, in nM.

# COMPOUND, IC50 [nM]
measured = [
    ("O=C1CCc2c(Oc3ccc4c(c3)[C@H]3[C@H](NC(=O)Nc5ccccc5F)[C@H]3O4)ccnc2N1", 0.066),
]

Please find the next compound below.
The measured IC50 associated with Cc1ccc2c(Nc3cccc(Cl)c3F)nccc2c1NC(=O)c1csc2c(N)ncnc12 [BELVARAFENIB] reads 9

* * *

target: RAF proto-oncogene serine/threonine-protein kinase (Homo sapiens); experiment: Inhibition of wild type C-RAF (unknown origin)
READOUT_KIND: pIC50
Give bare numbers, as −log10 of the molar value.

The measured pIC50 associated with Cc1ccc(NC(=O)c2ccnc(C(F)(F)F)c2)cc1-c1cc(OCCO)nc(N2CCOCC2)c1 [NAPORAFENIB] reads 8.40

* * *

target: RAF proto-oncogene serine/threonine-protein kinase (Homo sapiens); experiment: Inhibition of C-RAF (unknown origin)
READOUT_KIND: IC50 (µM)
Numbers only, in µM.

# CPD_SMILES, TARGET_SYSTEM, IC50 / µM
rows = [
    ("O=C1CCc2c(Oc3ccc4c(c3)[C@H]3[C@H](NC(=O)Nc5ccccc5F)[C@H]3O4)ccnc2N1", "RAF proto-oncogene serine/threonine-protein kinase (Homo sapiens)", 0.00087),
]

Please find the next molecule below.
The measured IC50 associated with Cc1ccc2c(Nc3cccc(Cl)c3F)nccc2c1NC(=O)c1csc2c(N)ncnc12 reads 0.023

* * *

target: RAF proto-oncogene serine/threonine-protein kinase (Homo sapiens, UniProt P04049); experiment: Inhibition of RAF (unknown origin)
Sequence (P04049 whole entry): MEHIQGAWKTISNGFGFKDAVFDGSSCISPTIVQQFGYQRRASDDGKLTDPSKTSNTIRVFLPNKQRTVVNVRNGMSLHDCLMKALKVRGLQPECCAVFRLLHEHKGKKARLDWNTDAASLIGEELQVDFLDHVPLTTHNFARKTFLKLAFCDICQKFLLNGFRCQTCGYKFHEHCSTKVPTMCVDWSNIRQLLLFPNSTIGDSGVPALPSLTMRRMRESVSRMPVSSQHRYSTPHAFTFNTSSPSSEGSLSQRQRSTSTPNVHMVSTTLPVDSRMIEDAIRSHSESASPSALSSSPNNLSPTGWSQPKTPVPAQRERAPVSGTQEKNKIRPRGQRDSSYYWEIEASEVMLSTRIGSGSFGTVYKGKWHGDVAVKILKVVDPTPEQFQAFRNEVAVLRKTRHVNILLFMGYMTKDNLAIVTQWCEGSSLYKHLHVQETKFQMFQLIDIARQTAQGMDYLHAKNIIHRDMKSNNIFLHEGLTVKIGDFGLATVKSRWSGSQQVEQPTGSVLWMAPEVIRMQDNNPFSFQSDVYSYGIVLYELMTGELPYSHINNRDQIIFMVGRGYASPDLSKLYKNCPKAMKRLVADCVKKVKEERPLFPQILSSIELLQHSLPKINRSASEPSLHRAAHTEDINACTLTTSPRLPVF
READOUT_KIND: IC50 (nM)
One number for each entry, in nM.

The measured IC50 associated with O=C(NCCNc1nccc(-c2c(-c3cccc(O)c3)nc3sccn23)n1)c1ccccc1 reads 190
